Reference source for all entries: PubChem BioAssay (NCI)

- experiment: NCI Yeast Anticancer Drug Screen. Data for the bub3 strain (AID 167)
- condition-context: S. cerevisiae bub3 mutant strain, at 50.0 µM (retest, dose inferred, filed as 5.0), hits give high values
The panel holds about 79,000 compounds, 15% with a hit somewhere; the sample as a whole holds those more often.
Provide the reported growth inhibition of each item.
Supply the numeric figure in %, leaving out any unit text.

# input compound: O=C1Oc2cc3c(c4cccc1c24)OCN(c1ccccc1)C3 ; wanted: its growth inhibition
25

# input compound: Oc1cc2c(cc1C(Nc1ncccn1)c1ccc(F)cc1)OCO2 (centres undefined) ; wanted: its growth inhibition
64

# input compound: O=C(/C(=C\c1ccccc1)c1ccccc1)c1ccc(Br)cc1 ; wanted: its growth inhibition
9

# input compound: NC(=Nc1ccccc1)SCc1ccc([N+](=O)[O-])cc1 ; wanted: its growth inhibition
76

# input compound: CC(C)=CCc1c2c(c3occ(-c4ccc(O)c(O)c4)c(=O)c3c1O)C=CC(C)(C)O2 ; wanted: its growth inhibition
94

# input compound: C[C@]12CC[C@H]3[C@@H](CCC4=CC(=O)CC[C@@]43C)[C@@H]1CC[C@@H]2O[Si](O[C@H]1CC[C@H]2[C@@H]3CCC4=CC(=O)CC[C@]4(C)[C@H]3CC[C@]12C)(O[C@H]1CC[C@H]2[C@@H]3CCC4=CC(=O)CC[C@]4(C)[C@H]3CC[C@]12C)c1ccccc1 ; wanted: its growth inhibition
77

# input compound: COc1c(C(=O)/C(=N/Nc2ccccc2)C(C)=O)c(O)c(OC)c2occc12 ; wanted: its growth inhibition
92

# input compound: CC1(c2ccccc2)Nc2ccccc2C1=Nc1ccccc1 (centres undefined) ; wanted: its growth inhibition
77

# input compound: OC(c1ccc(Cl)cc1)c1ccc(Cl)cc1 ; wanted: its growth inhibition
100

###

Provide the reported growth inhibition of each item.
- experiment: NCI Yeast Anticancer Drug Screen. Data for the mec2-1 strain (AID 157)
- condition-context: S. cerevisiae mec2-1 strain, at 5.0 µM (retest, dose inferred, filed as 0.5), hits give high values
About 79,000 compounds went through this panel and 15% of them were active in at least one assay; those are over-represented in the sample as a whole.
Supply the numeric figure in %, leaving out any unit text.

# input compound: N#CC1(C#N)C2C=CC(C3CCC=C32)C1(C#N)C#N (centres undefined) ; wanted: its growth inhibition
17

# input compound: C=C1C(=O)C23OC2C1CCC(=O)C1(C)CC[C@H](OC(C)=O)C(C)(C)[C@H]1CC3O (some centres undefined) ; wanted: its growth inhibition
92

# input compound: COc1ccc(C=Nc2ccccc2O)cc1 ; wanted: its growth inhibition
15

# input compound: CCCCCCC(C)OC(=O)c1ccccc1C(=O)O (centres undefined) ; wanted: its growth inhibition
-11

# input compound: CN=S(=O)(OCCCCCCCCCOS(=O)(=NC)c1ccc(C)cc1)c1ccc(C)cc1 (centres undefined) ; wanted: its growth inhibition
14

# input compound: O=C(NC(c1ccccc1)N1CCOCC1)c1ccccc1 (centres undefined) ; wanted: its growth inhibition
-7

# input compound: CCC(c1ccc(O)cc1)C(CC)c1ccc(OCC(N)=O)cc1 (centres undefined) ; wanted: its growth inhibition
0

# input compound: O=[N+]([O-])c1ccc(Sc2ccc([N+](=O)[O-])o2)o1 ; wanted: its growth inhibition
94

# input compound: CCc1ccc(/C(C)=N/NC(N)=S)cc1 ; wanted: its growth inhibition
-4

# input compound: O=C(c1ccccc1)c1ccc(Cl)cc1 ; wanted: its growth inhibition
-3

# input compound: Oc1ccccc1C1C=C(c2ccccc2)NC(N2CCCCC2)=C1c1nc2ccccc2[nH]1 (centres undefined) ; wanted: its growth inhibition
-9

# input compound: O=C(CS)Nc1ccccc1 ; wanted: its growth inhibition
18

# input compound: C1=C(c2ccccc2)OC(c2ccccc2)=C[P+]1(c1ccccc1)c1ccccc1 ; wanted: its growth inhibition
98

# input compound: CC1CCC(C(C)C2C(O)CC3C4CCC5CC(O)CCC5(C)C4CCC32C)NC1 (centres undefined) ; wanted: its growth inhibition
1

# input compound: O=C1O/C(=C(\Cc2ccccc2)c2ccccc2)N(c2ccccc2)C1=O ; wanted: its growth inhibition
-6

# input compound: CC12CC(O)C3C(CCC4CCCCC43C)C1CC/C2=N/O (centres undefined) ; wanted: its growth inhibition
45

# input compound: COc1cc(C=O)c(C=O)cc1OC ; wanted: its growth inhibition
6

# input compound: O=C(Nc1ccccc1)OCCN=C1c2ccccc2CCc2ccccc21 ; wanted: its growth inhibition
-35

# input compound: Oc1cc(Br)cc2cc(Cl)cnc12 ; wanted: its growth inhibition
97

# input compound: CN(C)C(=S)S(=O)(=O)CCCCS(=O)(=O)C(=S)N(C)C ; wanted: its growth inhibition
3

# input compound: CC(=O)c1c2c(cc3c1CC1(C3)Cc3cc4c(c(C(=O)O)c3C1)CCC4)CCC2 (centres undefined) ; wanted: its growth inhibition
56

# input compound: CSCCOC(=O)c1cc(NC(=S)c2ccoc2C)ccc1Cl ; wanted: its growth inhibition
-8

# input compound: O=C(O)CN1CCNCCN(CC(=O)O)CCNCC1 ; wanted: its growth inhibition
59

# input compound: CCN(CC)CCNc1ccc(C)c2sc3cccc(O)c3c(=O)c12 ; wanted: its growth inhibition
3

###

- experiment: NCI Yeast Anticancer Drug Screen. Data for the rad50 strain (AID 155);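 note: 0% = growth of vehicle-only cultures of the same strain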
- condition-context: S. cerevisiae rad50 strain growth inhibition; at 5.0 µM (retest, dose inferred, filed as 0.5); hits give high values
The panel holds about 79,000 compounds, 15% with a hit somewhere; the sample as a whole holds those more often.
So basically: growth inhibition at 10% or higher? That is yes (1). Lower than 10%? That is no (0).

Can S=c1[nH]c2cc(-c3ccccc3)ccc2o1 be said to have growth inhibition at or above 10%?
yes (1)

Can CC1=CC(C)(C)Nc2cc(N)ccc21 be said to have growth inhibition at or above 10%?
no (0)

Can N#CC1(C#N)C2C=CC(C3CCC=C32)C1(C#N)C#N (stereo not drawn) be said to have growth inhibition at or above 10%?
yes (1)

Can CCOC(=O)c1csc(=S)[nH]1 be said to have growth inhibition at or above 10%?
no (0)

Can CC1(C)CC[C@]2(C(=O)O)CC[C@]3(C)C(=CC[C@@H]4[C@@]5(C)C[C@H](O)[C@H](O)[C@@](C)(C(=O)O)[C@@H]5CC[C@]43C)[C@@H]2C1 be said to have growth inhibition at or above 10%?
yes (1)

Can CCN(CC)C(=S)N/N=C/c1cc(OC)ccc1O be said to have growth inhibition at or above 10%?
no (0)

Can Oc1cc(Br)ccc1/C=N/Nc1ccccn1 be said to have growth inhibition at or above 10%?
no (0)

Can ClC1(Cl)C(Cl)(Cl)C12c1ccccc1-c1ccccc12 be said to have growth inhibition at or above 10%?
yes (1)

Can COc1ccc(/C=C/C(C(=O)O)C(=O)O)cc1 be said to have growth inhibition at or above 10%?
yes (1)

Can c1cc(CCSSCCc2ccncc2)ccn1 be said to have growth inhibition at or above 10%?
no (0)

Can C/C(=N/NC(N)=S)C(C)C be said to have growth inhibition at or above 10%?
yes (1)

Can CCc1cccc(CC)c1NC(=O)C(C#N)C1=C(Cl)C(=O)c2ccccc2C1=O (stereo not drawn) be said to have growth inhibition at or above 10%?
yes (1)

Can CN1c2ccccc2C(c2ccccc2)c2ccc(Nc3ccccc3)cc21 (stereo not drawn) be said to have growth inhibition at or above 10%?
yes (1)

Can O=C(Nc1ccc(Cl)cc1)c1cccc([N+](=O)[O-])c1O be said to have growth inhibition at or above 10%?
no (0)

Can C=CC1(c2ccc(OC)cc2)OCCCO1 be said to have growth inhibition at or above 10%?
no (0)

Can CSC(=S)SC(SC)S(C)(=O)=O (stereo not drawn) be said to have growth inhibition at or above 10%?
no (0)

Can O=C1/C(=C/c2cccc([N+](=O)[O-])c2)Sc2scc(-c3ccc([N+](=O)[O-])cc3)[n+]21 be said to have growth inhibition at or above 10%?
no (0)

Can O=C(N/N=C/c1cc(Cl)cc(Cl)c1O)c1ccccc1 be said to have growth inhibition at or above 10%?
yes (1)

Can C/C=C/C=C\C1OC(O)([C@H](CC)C(=O)NC/C=C/C=C(\C)[C@H](OC)C(C)C2OC(\C=C/C=C/C=C(\C)C(=O)c3c(O)ccn(C)c3=O)[C@H](O)[C@@H]2O)C(O)C(O)C1(C)C (stereo partly drawn) be said to have growth inhibition at or above 10%?
no (0)

Can N#COc1ccc(Oc2ccc(OC#N)cc2)cc1 be said to have growth inhibition at or above 10%?
no (0)

Can O=[N+]([O-])c1c[nH]c2ncnc(SCc3ccccc3)c12 be said to have growth inhibition at or above 10%?
yes (1)

Can Cc1cc(C2c3ccccc3-c3ccccc32)cc(C)c1O be said to have growth inhibition at or above 10%?
no (0)

Can O=C(CCCN1CCC2(CC1)CC(c1ccccc1)OC2=O)c1ccc(F)cc1 (stereo not drawn) be said to have growth inhibition at or above 10%?
yes (1)
